pIC50 values for Adenosine receptor A2a (Homo sapiens), compiled from several publications.
pIC50: −log10 of the molar value.
property: pIC50

record_smiles=Cc1nc2nc(N[C@@H](C)c3cccnc3)nc(C(=O)N3CC(NC(=O)c4ccoc4)C3)c2s1 observed_measurement="> 7.00"
record_smiles=O=C(Nc1cc2nc(C3CNC3)nn2c(-c2ccco2)n1)C1CC1 observed_measurement="7.00 to 8.00"
record_smiles=Cc1nc2nc(N[C@@H](C)c3cccnc3)nc(C(=O)N3CC(NC(=O)c4ccccc4)C3)c2s1 observed_measurement="> 7.00"
record_smiles=Cc1nc2cc(NC(=O)NCCN3CCCCC3)nc(-c3ccco3)n2n1 observed_measurement="> 8.00"
record_smiles=Cc1nc2nc(N[C@@H](C)c3cncc(F)c3)nc(C(=O)N3CCN(C(=O)CC(C)(C)C)C3)c2s1 observed_measurement="< 6.00"
record_smiles=Cc1ccc(-c2nc3c(c4nc(C(C)C)nn24)C(C)(C)CN3)o1 observed_measurement="7.00 to 8.00"
record_smiles=CC(C)n1cc(-c2cc3c(=O)cc[nH]c3nc2-c2ccccc2)cc(Cl)c1=O observed_measurement=8.46
record_smiles=Cc1nc2cc(NC(=O)C3CC3)nc(-c3ccc(Br)o3)n2n1 observed_measurement="> 8.00"
